System: P. acnes (ATCC 6919)
Assay: Minimal bactericidal concentration (MBC) against P. acnes
Type: cell-based, Propionibacterium acnes
Conditions: Cutibacterium acnes, ATCC6919; P. acnes 10^7 CFU/mL, in PBS, anaerobic conditions

Compound | Assay Target | Value Relation Sign | MBC / µg/mL
C/C(=C\CSCC(Nc1nccc(N(C)CC(=O)O)n1)C(=O)O)CCCC(C)CCCC(C)CCCC(C)C (stereo not shown) | P. acnes (ATCC 6919) | = | 31
C/C(=C\CSC[C@H](NC(=O)N1CCC[C@H]1C(=O)O)C(=O)O)CCCC(C)CCCC(C)CCCC(C)C (stereo partly shown) | P. acnes (ATCC 6919) | = | 7
C/C(=C\CSCC(Nc1ncc(C(=O)O)cn1)C(=O)O)CCCC(C)CCCC(C)CCCC(C)C (stereo not shown) | P. acnes (ATCC 6919) | = | 16
C/C(=C\CSCC(NC(=O)c1cc(O)c(O)c(O)c1)C(=O)O)CCCC(C)CCCC(C)CCCC(C)C (stereo not shown) | P. acnes (ATCC 6919) | > | 25

---

System: IFNγ
Assay: PHA-induced IFNγ on PBMCs
Format: cell-based
Conditions: Homo sapiens, PBMC, PHA-L 20 μg/mL, 24 hours, ELISA

Compound | Assay Target | IC50
N#Cc1ccc(Oc2ccc3c(c2)COB3O)cc1 [AN2728, reference compound] | IFNγ | 0.3 µM
C/C(=C\CSC[C@H](NC(=O)N(C)CC(=O)O)C(=O)O)CCCC(C)CCCC(C)CCCC(C)C (some centres unmarked) [Compound C] | IFNγ | > 10 µM
C/C(=C\CSCC(NC(=O)N(CC(=O)O)CC(=O)O)C(=O)O)CCCC(C)CCCC(C)CCCC(C)C (centres unmarked) [Compound G] | IFNγ | > 10 µM
C/C(=C\CSC[C@H](NC(=O)COCC(=O)O)C(=O)O)CCCC(C)CCCC(C)CCCC(C)C (some centres unmarked) [Compound T] | IFNγ | > 10 µM
C/C(=C\CSC[C@H](NC(=O)N1CCC[C@H]1C(=O)O)C(=O)O)CCCC(C)CCCC(C)CCCC(C)C (some centres unmarked) [Compound E] | IFNγ | 1.4 µM

---

System: IL-10
Experiment: T-cell receptor (anti-CD3/CD28)-induced IL-10 on PBMCs
Format: cell-based
Settings: Homo sapiens, PBMC, anti-CD3/CD28 beads, 24 hours, ELISA, read-out: TCR-PBMCs IL-10 Protein IC50
pIC50: −log10 of the molar value.
Reported values of pIC50 for individual entries

Molecule | Assay Target | pIC50
C/C(=C\CSCC(NC(=O)CCCCCCCCC(=O)O)C(=O)O)CCCC(C)CCCC(C)CCCC(C)C (stereo not shown) [D] | IL-10 | 4.00
C/C(=C\CSC[C@H](NC(=O)COCC(=O)O)C(=O)O)CCCC(C)CCCC(C)CCCC(C)C (stereo partly shown) [Compound T] | IL-10 | 4.72
C/C(=C\CSC[C@H](NC(=O)N1CCC[C@H]1C(=O)O)C(=O)O)CCCC(C)CCCC(C)CCCC(C)C (stereo partly shown) [Compound E] | IL-10 | 4.41
CSCCC(NC(C)=O)C(=O)NC(CSC/C=C(\C)CCCC(C)CCCC(C)CCCC(C)C)C(=O)O (stereo not shown) [Compound B] | IL-10 | 4.34
C/C(=C\CSCC(NC(=O)NCC(=O)O)C(=O)O)CCCC(C)CCCC(C)CCCC(C)C (stereo not shown) [A] | IL-10 | 4.38
N#Cc1ccc(Oc2ccc3c(c2)COB3O)cc1 [AN2728, reference compound] | IL-10 | 5.05
C/C(=C\CSC[C@H](NC(=O)N(C)CC(=O)O)C(=O)O)CCCC(C)CCCC(C)CCCC(C)C (stereo partly shown) [Compound C] | IL-10 | 4.47
